Just for reference, patent US20230106715A1 is where these values come from.

# maps each entry to its pKd
- experimental system: T1, cynomolgus monkey Siglec15-his protein (cynomolgus monkey)
- T1 construct: In house made; also called Cynomolgus Siglec15-his; cynomolgus Siglec15
- T1 chain: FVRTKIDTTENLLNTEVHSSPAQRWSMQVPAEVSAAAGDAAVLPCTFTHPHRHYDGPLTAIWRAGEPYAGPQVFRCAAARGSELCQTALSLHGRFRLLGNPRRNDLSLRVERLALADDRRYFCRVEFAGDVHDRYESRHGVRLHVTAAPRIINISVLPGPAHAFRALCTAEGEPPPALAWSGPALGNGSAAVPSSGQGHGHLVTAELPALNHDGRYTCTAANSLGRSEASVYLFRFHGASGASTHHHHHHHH
- method description: SPR Biacore T200, antibody captured by anti-human IgG, antigen as analyte, 1:1 fit
Reminder that pKd means the negative base-10 logarithm of the concentration expressed in mol/L.

Here's what some known entries look like.
A2A5C7E8-3 (antibody, human IgG1, kappa, V domains shown, Variant of A2A5C7E8 modified in VH CDR2 (X2 = K)) VH: EVQLVQSGAEVKKPGESLRISCKGSGYSFTTYWISWVRQMPGKGLEWMGLIDPSDSYTNYSPSFKGHVTISTDKSISTAYLQWSSLKASDTAMYYCARGGYYGSEEDYWGQGTLVTVSS VL: EIVLTQSPGTLSLSPGERATLSCRASQSVSSSRLAWFQQKSGQAPRLLIFDASSRATGIPDRFSGSGSGTDFTLTISRLEPEDFAVYYCQQYGSSPRTFGQGTKVEFKR; 10.12
anti-Siglec15 benchmark (ch5G12) (antibody, human IgG1, kappa, V domains shown, ch5G12 (US 20190202912A1); also called BM; Siglec15-ch5G9) VH: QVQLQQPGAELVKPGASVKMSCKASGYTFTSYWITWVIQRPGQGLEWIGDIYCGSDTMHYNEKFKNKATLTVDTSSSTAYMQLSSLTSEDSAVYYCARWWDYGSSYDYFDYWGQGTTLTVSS VL: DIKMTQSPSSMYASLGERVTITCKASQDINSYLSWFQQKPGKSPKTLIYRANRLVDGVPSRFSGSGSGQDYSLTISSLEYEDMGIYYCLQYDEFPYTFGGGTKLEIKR; 9.16

Now for another entry.
[in] For the binder A2A5C7E8 (antibody, V domains shown, Fully human antibody from transgenic mouse hybridoma; also called A2A5C7E8-1) VH: EVQLVQSGAEVKKPGESLRISCKGSGYSFTTYWISWVRQMPGKGLEWMGLIDPSDSYTNYSPSFQGHVTISTDKSISTAYLQWSSLKASDTAMYYCARGGYYGSEEDYWGQGTLVTVSS VL: EIVLTQSPGTLSLSPGERATLSCRASQSVSSSRLAWFQQKSGQAPRLLIFDASSRATGIPDRFSGSGSGTDFTLTISRLEPEDFAVYYCQQYGSSPRTFGQGTKVEFK , what pKd is on record?
[out] 10.15
